# Tgt: T1, extracellular domain of human BCMA (human, UniProt Q02223 1-54)
# T1 construct: amine-linked to Octet AR2G tips; also called hsBCMA; BCMA (human)
# T1 sequence: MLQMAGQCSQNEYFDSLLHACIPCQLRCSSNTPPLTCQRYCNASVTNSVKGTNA
# Protocol: Octet BLI; Fab 200 nM
For each of the binders below, state its log10 of Kd.
Use the decimal logarithm of Kd (nM).

Some entries whose results are on file:
AB200-R1a-Fab_Vk11 (Fab, V domains shown) VH: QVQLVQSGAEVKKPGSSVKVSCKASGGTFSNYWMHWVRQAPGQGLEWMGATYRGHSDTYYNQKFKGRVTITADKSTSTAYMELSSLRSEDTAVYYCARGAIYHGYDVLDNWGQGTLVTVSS VL: DIQMTQSPSSLSASVGDRVTITCRASQDVSNYLNWYQQKPGKAPKLLIYYTTNLHSGVPSRFSGSGSGTDFTLTISSLQPEDFATYYCQQYRKLPWTFGQGTKLEIKR :: 0.18
AB200-R1a-Fab_Vk15 (Fab, V domains shown) VH: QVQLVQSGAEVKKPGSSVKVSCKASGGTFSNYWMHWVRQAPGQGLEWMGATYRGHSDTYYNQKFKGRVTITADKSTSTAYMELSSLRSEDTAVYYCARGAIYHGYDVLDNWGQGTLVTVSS VL: DIQMTQSPSSLSASVGDRVTITCSASHEISNYLNWYQQKPGKAPKLLIYYTSSLHSGVPSRFSGSGSGTDFTLTISSLQPEDFATYYCQQYRKLPWTFGQGTKLEIKR :: 0.47
AB200-R1a-Fab_Vk10 (Fab, V domains shown) VH: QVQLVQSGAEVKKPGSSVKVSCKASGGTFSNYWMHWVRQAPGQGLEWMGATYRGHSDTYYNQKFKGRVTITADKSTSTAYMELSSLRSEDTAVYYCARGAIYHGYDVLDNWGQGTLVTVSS VL: DIQMTQSPSSLSASVGDRVTITCSASQSISNYLNWYQQKPGKAPKLLIYYTSNLHSGVPSRFSGSGSGTDFTLTISSLQPEDFATYYCQQSRKMPWTFGQGTKLEIKR :: 2.04

Could you tell me log10 of Kd for each of these binders? They are listed below.
1. AB200-R1a-Fab_Vk30 (Fab, V domains shown) VH: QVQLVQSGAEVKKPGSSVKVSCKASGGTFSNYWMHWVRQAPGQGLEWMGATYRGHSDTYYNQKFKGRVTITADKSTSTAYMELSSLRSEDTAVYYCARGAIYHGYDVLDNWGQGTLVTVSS VL: DIQMTQSPSSLSASVGDRVTITCTASQSISNYINWYQQKPGKAPKLLIYYTSNLHSGVPSRFSGSGSGTDFTLTISSLQPEDFATYYCQQYRKLPWTFGQGTKLEIKR
2. AB200-R1a-Fab_Vk4 (Fab, V domains shown) VH: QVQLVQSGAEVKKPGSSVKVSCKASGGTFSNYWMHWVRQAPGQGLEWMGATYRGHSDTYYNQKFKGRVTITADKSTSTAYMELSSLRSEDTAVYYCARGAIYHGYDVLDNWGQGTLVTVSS VL: DIQMTQSPSSLSASVGDRVTITCTATQDITNYLNWYQQKPGKAPKLLIYYTSNLHSGVPSRFSGSGSGTDFTLTISSLQPEDFATYYCQQYRKLPWTFGQGTKLEIKR
3. AB200-R1a-Fab_Vk12 (Fab, V domains shown) VH: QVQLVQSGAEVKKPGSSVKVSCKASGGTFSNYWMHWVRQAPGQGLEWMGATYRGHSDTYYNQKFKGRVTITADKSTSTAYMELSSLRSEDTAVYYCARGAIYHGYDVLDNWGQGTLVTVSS VL: DIQMTQSPSSLSASVGDRVTITCSASQDISNYLNWYQQKPGKAPKLLIYYATNLHSGVPSRFSGSGSGTDFTLTISSLQPEDFATYYCQQYRRLPWTFGQGTKLEIKR
4. AB200-R1a-Fab_Vk23 (Fab, V domains shown) VH: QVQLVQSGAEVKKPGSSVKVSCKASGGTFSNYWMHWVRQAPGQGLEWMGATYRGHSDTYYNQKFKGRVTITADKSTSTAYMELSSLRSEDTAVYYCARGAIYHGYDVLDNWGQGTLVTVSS VL: DIQMTQSPSSLSASVGDRVTITCSASQDISNYLNWYQQKPGKAPKLLIYYTSNIHSGVPSRFSGSGSGTDFTLTISSLQPEDFATYYCQQYKKMPWTFGQGTKLEIKR
5. AB200-R1a-Fab_Vk26 (Fab, V domains shown) VH: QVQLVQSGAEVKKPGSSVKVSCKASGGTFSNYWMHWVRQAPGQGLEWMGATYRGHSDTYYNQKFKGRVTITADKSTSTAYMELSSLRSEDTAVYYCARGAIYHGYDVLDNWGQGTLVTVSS VL: DIQMTQSPSSLSASVGDRVTITCSASQDISNYLNWYQQKPGKAPKLLIYYSSSLHIGVPSRFSGSGSGTDFTLTISSLQPEDFATYYCQQYRKLPWTFGQGTKLEIKR
6. AB200-R1a-Fab(hCDR3) (Fab, V domains shown) VH: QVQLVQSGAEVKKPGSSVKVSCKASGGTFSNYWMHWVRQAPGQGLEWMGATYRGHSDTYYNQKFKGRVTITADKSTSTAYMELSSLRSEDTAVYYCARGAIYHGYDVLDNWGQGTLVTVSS VL: DIQMTQSPSSLSASVGDRVTITCSASQDISNYLNWYQQKPGKAPKLLIYYTSNLHSGVPSRFSGSGSGTDFTLTISSLQPEDFATYYCQQSYSTPWTFGQGTKLEIKR
7. AB200-R1a-Fab_Vk18 (Fab, V domains shown) VH: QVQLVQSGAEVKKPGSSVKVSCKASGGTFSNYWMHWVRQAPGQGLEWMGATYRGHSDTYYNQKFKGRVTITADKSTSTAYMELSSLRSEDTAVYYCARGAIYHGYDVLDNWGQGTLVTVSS VL: DIQMTQSPSSLSASVGDRVTITCTASQDISNYLNWYQQKPGKAPKLLIYYTSDLHIGVPSRFSGSGSGTDFTLTISSLQPEDFATYYCQQYRKLPWTFGQGTKLEIKR

1. 0.19
2. 0.34
3. 0.69
4. 1.23
5. 0.75
6. 1.92
7. 0.47
